target: Ylr278c (UniProt Q05854); assay: PBM E-score (8-mer binding enrichment) (E-score (-0.5 to 0.5)); higher = stronger / more preferred TF binding; details: protein concentration: 200 nM; construct: GST-DNA-binding domain
Sequence (Q05854 whole entry, the tested form may be a part): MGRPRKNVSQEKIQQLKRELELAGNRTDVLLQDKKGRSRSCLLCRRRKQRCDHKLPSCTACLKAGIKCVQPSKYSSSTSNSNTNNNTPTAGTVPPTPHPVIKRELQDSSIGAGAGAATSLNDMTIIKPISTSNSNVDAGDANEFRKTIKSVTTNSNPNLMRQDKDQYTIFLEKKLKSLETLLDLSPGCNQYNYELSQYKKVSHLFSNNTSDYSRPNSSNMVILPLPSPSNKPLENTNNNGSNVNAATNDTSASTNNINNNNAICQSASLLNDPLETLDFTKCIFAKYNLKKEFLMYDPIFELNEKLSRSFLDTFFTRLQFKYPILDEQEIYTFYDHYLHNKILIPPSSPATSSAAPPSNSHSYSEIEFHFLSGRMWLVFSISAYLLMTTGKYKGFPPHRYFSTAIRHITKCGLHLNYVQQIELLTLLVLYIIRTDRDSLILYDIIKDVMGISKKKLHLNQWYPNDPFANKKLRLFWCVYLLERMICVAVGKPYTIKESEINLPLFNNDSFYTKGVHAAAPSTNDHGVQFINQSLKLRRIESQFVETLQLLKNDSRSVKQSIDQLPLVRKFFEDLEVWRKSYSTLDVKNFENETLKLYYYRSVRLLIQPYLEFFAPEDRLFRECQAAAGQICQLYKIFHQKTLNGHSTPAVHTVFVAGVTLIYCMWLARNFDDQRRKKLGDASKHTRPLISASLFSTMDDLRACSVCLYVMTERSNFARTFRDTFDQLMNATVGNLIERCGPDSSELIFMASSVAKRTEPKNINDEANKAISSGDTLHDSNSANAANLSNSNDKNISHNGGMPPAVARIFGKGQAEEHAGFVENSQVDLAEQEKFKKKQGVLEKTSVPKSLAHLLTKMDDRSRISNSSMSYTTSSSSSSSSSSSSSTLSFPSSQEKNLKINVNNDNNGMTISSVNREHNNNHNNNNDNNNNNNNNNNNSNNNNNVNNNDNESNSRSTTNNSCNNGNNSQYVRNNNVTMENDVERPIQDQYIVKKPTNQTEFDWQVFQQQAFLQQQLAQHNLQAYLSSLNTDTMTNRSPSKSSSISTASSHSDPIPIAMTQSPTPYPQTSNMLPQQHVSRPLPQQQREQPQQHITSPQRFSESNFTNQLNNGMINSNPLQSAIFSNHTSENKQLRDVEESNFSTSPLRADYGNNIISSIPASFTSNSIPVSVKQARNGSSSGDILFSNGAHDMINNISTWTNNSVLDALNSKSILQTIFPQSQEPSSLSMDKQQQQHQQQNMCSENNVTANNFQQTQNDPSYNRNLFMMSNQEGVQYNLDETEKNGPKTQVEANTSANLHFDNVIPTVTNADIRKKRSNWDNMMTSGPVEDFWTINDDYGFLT
In all, about 33,000 sequences were measured (“E-score (-0.5 to 0.5)”: median about -0.054, highest 2% from about 0.39 on). The full list was thinned out, with the highest values kept by preference.
Measured Metric: PBM E-score

sequence_record=AGGCCGGG measured_metric="PBM E-score" data_value=0.258
sequence_record=AGCAATCA measured_metric="PBM E-score" data_value=-0.118
sequence_record=CAACCGGG measured_metric="PBM E-score" data_value=0.215
sequence_record=GAGTCGAC measured_metric="PBM E-score" data_value=0.00525
sequence_record=CAACCGGA measured_metric="PBM E-score" data_value=0.414
sequence_record=AAGCTGCC measured_metric="PBM E-score" data_value=-0.234
sequence_record=CACCGGAC measured_metric="PBM E-score" data_value=0.439
sequence_record=AATTCGGC measured_metric="PBM E-score" data_value=0.157
sequence_record=GAGCCGCA measured_metric="PBM E-score" data_value=0.0873
sequence_record=CTTCGGTA measured_metric="PBM E-score" data_value=0.0846
sequence_record=AATTCGGA measured_metric="PBM E-score" data_value=0.449
sequence_record=TAACCGTA measured_metric="PBM E-score" data_value=-0.0936
sequence_record=GCCGGAAA measured_metric="PBM E-score" data_value=0.428
sequence_record=CCGGATCC measured_metric="PBM E-score" data_value=0.42
sequence_record=CGCGCAAG measured_metric="PBM E-score" data_value=0.0504
sequence_record=GAACCGTA measured_metric="PBM E-score" data_value=-0.0428
sequence_record=ACACCACT measured_metric="PBM E-score" data_value=-0.0175
sequence_record=CAGCCGGC measured_metric="PBM E-score" data_value=0.296
sequence_record=AGCAGCCA measured_metric="PBM E-score" data_value=-0.259
sequence_record=TAGCCGCA measured_metric="PBM E-score" data_value=0.041
sequence_record=AGGAAATA measured_metric="PBM E-score" data_value=0.0859
sequence_record=CCCGACAA measured_metric="PBM E-score" data_value=0.281
sequence_record=CCGGATCA measured_metric="PBM E-score" data_value=0.385
sequence_record=CACCGGAA measured_metric="PBM E-score" data_value=0.427
sequence_record=AAGACGTA measured_metric="PBM E-score" data_value=-0.154
sequence_record=ACCGGAAT measured_metric="PBM E-score" data_value=0.389
sequence_record=CGGGATTA measured_metric="PBM E-score" data_value=0.406
sequence_record=TAGCCGAA measured_metric="PBM E-score" data_value=0.141
sequence_record=GGGGATTA measured_metric="PBM E-score" data_value=0.175
sequence_record=AGGAGCAA measured_metric="PBM E-score" data_value=-0.0147
sequence_record=AGGGATTA measured_metric="PBM E-score" data_value=-0.223
sequence_record=TCCGACAA measured_metric="PBM E-score" data_value=0.39
sequence_record=ACAGGAGT measured_metric="PBM E-score" data_value=-0.0336
sequence_record=CGGCCGGC measured_metric="PBM E-score" data_value=0.409
sequence_record=TGGAGCAA measured_metric="PBM E-score" data_value=-0.111
sequence_record=CGGAGCAC measured_metric="PBM E-score" data_value=0.391
sequence_record=TAGCCGGA measured_metric="PBM E-score" data_value=0.42
sequence_record=AGGAGCAC measured_metric="PBM E-score" data_value=-0.0853
sequence_record=TATTCGGA measured_metric="PBM E-score" data_value=0.408
sequence_record=CAACCGGC measured_metric="PBM E-score" data_value=0.27
sequence_record=AACCTCAT measured_metric="PBM E-score" data_value=-0.143
sequence_record=CGGCCGTA measured_metric="PBM E-score" data_value=0.225
sequence_record=CAGCCGGG measured_metric="PBM E-score" data_value=0.166
sequence_record=ATTCTCCG measured_metric="PBM E-score" data_value=0.474
sequence_record=CTGAAATC measured_metric="PBM E-score" data_value=0.0679
sequence_record=CGGAGCAA measured_metric="PBM E-score" data_value=0.456
sequence_record=CGGAAATA measured_metric="PBM E-score" data_value=0.451
sequence_record=ACCGGAGT measured_metric="PBM E-score" data_value=0.481
sequence_record=AGGCCGTA measured_metric="PBM E-score" data_value=0.0868
sequence_record=GAGCCGGA measured_metric="PBM E-score" data_value=0.407
sequence_record=CTCGGAAG measured_metric="PBM E-score" data_value=0.303
sequence_record=CGGAAAAA measured_metric="PBM E-score" data_value=0.446
sequence_record=GGGCCGTA measured_metric="PBM E-score" data_value=0.0879
sequence_record=AAACTGCC measured_metric="PBM E-score" data_value=-0.0969
sequence_record=CGGCCGAC measured_metric="PBM E-score" data_value=0.309
sequence_record=CAGGCTAA measured_metric="PBM E-score" data_value=-0.247
sequence_record=GATTCGGA measured_metric="PBM E-score" data_value=0.363
sequence_record=ATTCTCCC measured_metric="PBM E-score" data_value=0.0768
sequence_record=CACCGGCG measured_metric="PBM E-score" data_value=0.383
sequence_record=TAACCGGA measured_metric="PBM E-score" data_value=0.431
sequence_record=GAACAGAA measured_metric="PBM E-score" data_value=-0.0459
sequence_record=GAGCCGGC measured_metric="PBM E-score" data_value=0.325
sequence_record=GCGCGCTA measured_metric="PBM E-score" data_value=0.0544
sequence_record=CACCGGGA measured_metric="PBM E-score" data_value=0.352
sequence_record=ATCATGAT measured_metric="PBM E-score" data_value=-0.14
sequence_record=CACCGGCC measured_metric="PBM E-score" data_value=0.273
sequence_record=GAACCGGC measured_metric="PBM E-score" data_value=0.283
sequence_record=CAGGATCG measured_metric="PBM E-score" data_value=0.00336
sequence_record=GACCGGAA measured_metric="PBM E-score" data_value=0.389
sequence_record=AGTCTCCA measured_metric="PBM E-score" data_value=-0.312
sequence_record=GCCGACGA measured_metric="PBM E-score" data_value=0.248
sequence_record=GTTCGGGA measured_metric="PBM E-score" data_value=0.277
sequence_record=ACCGACAA measured_metric="PBM E-score" data_value=0.199
sequence_record=GAACCGGA measured_metric="PBM E-score" data_value=0.426
sequence_record=GACCGGGA measured_metric="PBM E-score" data_value=0.359
sequence_record=CTTCGGCA measured_metric="PBM E-score" data_value=0.274
sequence_record=ACTACGCT measured_metric="PBM E-score" data_value=-0.0389
sequence_record=GTTCGGAA measured_metric="PBM E-score" data_value=0.403
sequence_record=CAGCCGGA measured_metric="PBM E-score" data_value=0.434
sequence_record=ACCGGGAT measured_metric="PBM E-score" data_value=0.388
sequence_record=ATTCTCCA measured_metric="PBM E-score" data_value=-0.052
sequence_record=GTTCGGCA measured_metric="PBM E-score" data_value=0.134
sequence_record=CGGCCGGA measured_metric="PBM E-score" data_value=0.424
sequence_record=CCGGGAAA measured_metric="PBM E-score" data_value=0.354
sequence_record=GGGAGCAC measured_metric="PBM E-score" data_value=0.0245

// provenance: the supplement of paper PMC3334620
